From: the supplement of paper PMC7125110

B1: glmS ribozyme (parent)
chain: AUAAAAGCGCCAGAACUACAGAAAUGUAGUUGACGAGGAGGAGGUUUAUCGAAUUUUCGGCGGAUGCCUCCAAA

- Variants of: B1
- measurement.notes: kcat; higher = faster cleavage; RNA array
- condition.details: with glucosamine-6-phosphate
This sample holds only a part of the variants without activity.
Entries and their kcat
Please respond with the number in s⁻¹ and leave the unit unwritten.

Example cases with answers are listed next.
[
  {
    "construct.sequence": "AUAAAAGCGCCUGAACUACAGAAAUGUAGUUGACGAGGAGGAGGUUUAUCGAAUUUUCGGCGGAUGCCGCCAAA",
    "parameter": "kcat",
    "readout.value": 0.000139
  },
  {
    "construct.sequence": "AUAAAAGCGCCAGAACUACAGAAAUGUAGUUGACGAGGAGGAGGUUUAUCGAAUAUUCGGCGGAUGCGUCCAAA",
    "parameter": "kcat",
    "readout.value": "8.49e-05"
  }
]

Consider now this further variant.
Return kcat (reported value) for this variant: AUAAAAGCGCCAGAACUACAGAAAUGUAGCUGACGAGGAAGAGGUUUAUCGAAUUUUCGGCGGAUGCCUCCAAA 9.74e-05
